Target of assay: Phosphodiesterase 4 (Homo sapiens, UniProt P27815+Q08499+Q07343+Q08493)
Experiment description: Inhibition of rolipram binding to PDE4 from human neutrophils
Format: protein assay
Readout: Ki (nM)

FC(F)Oc1ccc2c(Cc3c(Cl)cncc3Cl)nncc2c1OC1CCCC1 = 46

(P) COc1ccc2c(Cc3c(Cl)cncc3Cl)nncc2c1OCCCCCc1ccccc1
(Q) COc1ccc2c(Cc3c(Cl)cncc3Cl)nncc2c1CCCCCc1ccccc1
input: Please indicate which item has the smaller measured Ki: P versus Q Pick one; state its label.
output: P

(I) COc1ccc2c(Cc3c(Cl)cncc3Cl)nncc2c1OC1CCCC1
(II) COc1ccc2c(Nc3c(Cl)cncc3Cl)nncc2c1OC1CCCC1
(III) COc1ccc2c(Cc3c(Cl)cncc3Cl)nncc2c1OC1CCOC1 (stereo not given)
(IV) COc1ccc2c(Cc3c(Cl)cncc3Cl)nncc2c1OC1Cc2ccccc2C1
input: Sort entries by Ki from minimum to maximum value. # answer = labels listed in requested order
output: IV, II, I, III
(IV: 16 nM, II: 95 nM, I: 149 nM, III: 286 nM)
